All values here come from the supplement of paper PMC10307832.

Tested on: NCI-H460
Assay Comment: relative viability (nuclei count vs DMSO), 5 days (fraction); higher = more cells survive
Study Conditions: first compound 0.1265 µM
// reported relative viability per item
Metric: relative viability

C[C@@H]1CN(CC(=O)Nc2ccc3c(c2)Cc2cccc(-c4cc(=O)cc(N5CCOCC5)o4)c2S3)C[C@H](C)O1 + COc1cccc2cc(-c3nc([C@H]4CC[C@H](C(=O)O)CC4)n4ncnc(N)c34)[nH]c12 [OSI-027] (partner 0.5 µM); 0.674
Clc1ccc(Nc2nnc(Cc3ccncc3)c3ccccc23)cc1 [Vatalanib] + COc1cccc2cc(-c3nc([C@H]4CC[C@H](C(=O)O)CC4)n4ncnc(N)c34)[nH]c12 [OSI-027] (partner 0.5 µM); 0.703
C[C@@H]1CN(CC(=O)Nc2ccc3c(c2)Cc2cccc(-c4cc(=O)cc(N5CCOCC5)o4)c2S3)C[C@H](C)O1 + C[C@@H](Oc1cc(-c2cnn(C3CCNCC3)c2)cnc1N)c1c(Cl)ccc(F)c1Cl [Crizotinib] (partner 1 µM); 0.924
COc1cc(N2CCC(C(N)=O)CC2)ccc1Nc1nc(N)c(Cl)c(Nc2ccccc2S(=O)(=O)C(C)C)n1 [HG-5-88-01] + N=C(N)NC(=N)NCCc1ccccc1 [Phenformin] (partner 250 µM); 0.491
Clc1ccc(Nc2nnc(Cc3ccncc3)c3ccccc23)cc1 [Vatalanib] + CC(C)C[C@H](NC(=O)[C@H](Cc1ccccc1)NC(=O)c1cnccn1)B(O)O [Bortezomib] (partner 0.002 µM); 0.919
COc1cc(N2CCC(C(N)=O)CC2)ccc1Nc1nc(N)c(Cl)c(Nc2ccccc2S(=O)(=O)C(C)C)n1 [HG-5-88-01] + O=C(c1cc(Cc2n[nH]c(=O)c3ccccc23)ccc1F)N1CCN(C(=O)C2CC2)CC1 [Olaparib] (partner 8 µM); 0.498
